Origin of measurements: patent US11420973B2

Molecular target: human TLR7 (Homo sapiens (Human), UniProt Q9NYK1)
Sequence (Q9NYK1 27-1049): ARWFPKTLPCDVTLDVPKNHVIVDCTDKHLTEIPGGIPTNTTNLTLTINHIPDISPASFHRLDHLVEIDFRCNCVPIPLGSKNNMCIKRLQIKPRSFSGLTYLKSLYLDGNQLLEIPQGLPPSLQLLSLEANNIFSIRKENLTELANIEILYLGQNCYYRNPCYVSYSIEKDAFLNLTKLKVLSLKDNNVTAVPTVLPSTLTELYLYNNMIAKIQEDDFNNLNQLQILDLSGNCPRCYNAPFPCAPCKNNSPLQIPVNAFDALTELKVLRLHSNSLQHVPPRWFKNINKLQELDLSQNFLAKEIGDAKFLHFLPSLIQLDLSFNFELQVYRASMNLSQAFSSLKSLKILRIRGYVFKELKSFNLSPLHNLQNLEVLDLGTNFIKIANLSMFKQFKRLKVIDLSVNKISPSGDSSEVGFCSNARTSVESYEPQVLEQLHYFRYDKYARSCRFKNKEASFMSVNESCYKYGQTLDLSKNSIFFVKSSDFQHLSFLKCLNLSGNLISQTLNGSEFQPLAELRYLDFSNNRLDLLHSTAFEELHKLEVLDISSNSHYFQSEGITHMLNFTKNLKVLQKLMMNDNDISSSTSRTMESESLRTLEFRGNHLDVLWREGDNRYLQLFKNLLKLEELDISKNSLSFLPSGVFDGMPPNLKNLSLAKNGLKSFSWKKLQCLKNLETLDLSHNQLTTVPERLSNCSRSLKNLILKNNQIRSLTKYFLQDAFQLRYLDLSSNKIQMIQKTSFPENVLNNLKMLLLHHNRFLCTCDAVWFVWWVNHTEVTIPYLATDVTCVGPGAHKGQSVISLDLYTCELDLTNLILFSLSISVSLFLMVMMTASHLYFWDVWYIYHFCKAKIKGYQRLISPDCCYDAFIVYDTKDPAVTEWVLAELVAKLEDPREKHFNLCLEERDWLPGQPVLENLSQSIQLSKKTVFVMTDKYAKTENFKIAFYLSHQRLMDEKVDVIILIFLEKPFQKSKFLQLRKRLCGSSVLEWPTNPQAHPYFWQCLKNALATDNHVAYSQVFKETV
Assay: TLR7 inhibition reporter assay (HEK-Blue SEAP reporter, gardiquimod stimulation)
Assay type: cell-based
Conditions: HEK-Blue cells overexpressing human TLR7, gardiquimod 7.5 μM
pIC50: −log10 of the molar value.
Criterion: pIC50 meeting or surpassing 7. Met: true. Not met: false.

>>> df
                                   compound  category
0  CCc1c(-c2ccc(OC)c(OC)c2)[nH]c2ccc(C(=O)NC(CO)CO)cc12     false
1  CCc1c(-c2ccc(OC)c(OC)c2)[nH]c2ccc(C(=O)N3CCc4ccccc43)cc12     false
2  Cc1cc(-c2[nH]c3ccc(C(C)(C)C(=O)N4CCCC(CCN)C4)cc3c2C(C)C)ccn1 (centres unmarked)      true
3  Cc1cc(-c2[nH]c3ccc(C(C)C(=O)N4CCC(CN)CC4)cc3c2C(C)C)ccn1 (centres unmarked)     false
4  Cc1cc(-c2[nH]c3ccc(C(=O)N4CC5CN(CC(=O)N(C)C)CC5C4)cc3c2C(C)C)ccn1 (centres unmarked)     false
5  Cc1cc(-c2[nH]c3ccc(C(C)C(=O)N(C)C4CCNCC4)cc3c2C(C)C)ccn1 (centres unmarked)     false

* * *

Recorded pIC50 for the following molecules
Molecular target: UniProt:Q9NR96
Sequence (Q9NR96 26-1032): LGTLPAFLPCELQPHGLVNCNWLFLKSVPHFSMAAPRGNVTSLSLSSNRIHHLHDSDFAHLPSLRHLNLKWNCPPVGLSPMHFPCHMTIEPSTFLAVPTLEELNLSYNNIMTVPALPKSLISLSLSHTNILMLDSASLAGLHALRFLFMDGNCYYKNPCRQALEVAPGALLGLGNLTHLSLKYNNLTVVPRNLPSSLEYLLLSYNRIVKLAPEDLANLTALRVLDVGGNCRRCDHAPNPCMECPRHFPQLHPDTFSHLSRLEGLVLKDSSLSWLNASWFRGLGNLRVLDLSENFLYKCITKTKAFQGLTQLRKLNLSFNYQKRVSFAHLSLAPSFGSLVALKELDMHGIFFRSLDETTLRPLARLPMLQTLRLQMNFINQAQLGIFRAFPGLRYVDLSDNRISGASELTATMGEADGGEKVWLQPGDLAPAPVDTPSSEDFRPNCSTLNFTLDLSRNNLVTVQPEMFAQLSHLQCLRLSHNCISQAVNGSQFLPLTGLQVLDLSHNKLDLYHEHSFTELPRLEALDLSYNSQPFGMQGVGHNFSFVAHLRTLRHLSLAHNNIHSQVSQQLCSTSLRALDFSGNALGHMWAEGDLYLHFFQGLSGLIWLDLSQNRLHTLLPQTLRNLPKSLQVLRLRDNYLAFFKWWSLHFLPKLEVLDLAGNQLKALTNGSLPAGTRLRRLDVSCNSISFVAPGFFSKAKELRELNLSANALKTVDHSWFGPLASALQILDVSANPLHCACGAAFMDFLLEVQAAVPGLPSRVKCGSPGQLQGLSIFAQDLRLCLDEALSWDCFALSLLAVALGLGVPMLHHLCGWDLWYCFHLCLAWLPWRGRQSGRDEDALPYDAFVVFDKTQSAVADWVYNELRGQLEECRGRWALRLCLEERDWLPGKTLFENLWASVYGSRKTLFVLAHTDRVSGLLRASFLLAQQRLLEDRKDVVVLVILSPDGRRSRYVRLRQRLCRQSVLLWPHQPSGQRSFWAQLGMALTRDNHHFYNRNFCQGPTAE
Assay: TLR9 inhibition reporter assay (HEK-Blue SEAP reporter, ODN2006 stimulation);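 also: SEAP reporter under IFN-β minimal promoter with five NF-κB and AP-1 sites, 22 h incubation, compounds 0.05 nM–50 µM, inhibition relative to agonist plus DMSO versus known inhibitor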
Conditions: read-out: TLR9 IC50; HEK-Blue cells overexpressing human TLR9, ODN2006 5 nM, SEAP reporter
pIC50: −log10 of the molar value.
VALUE KIND: pIC50

>>> df
                                   molecule  value_comparator  observed
0  Cc1cc(-c2[nH]c3ccc(C(=O)NCCN(C)C)cc3c2C(C)C)cc(C)n1                 =      5.82
1  Cc1cc(-c2[nH]c3ccc(C(=O)N4CCCN(C)CC4)cc3c2C(C)C)cc(C)n1                 =      5.61
2  CCc1c(-c2ccc(OC)c(OC)c2)[nH]c2ccc(C(=O)N3CCC(n4c(=O)[nH]c5ccccc54)CC3)cc12                 =      4.87
3  Cc1cc(-c2[nH]c3ccc(C(C)C(=O)NC[C@@H](F)C(C)(C)O)cc3c2C(C)C)ccn1 (some centres unmarked)                 <      4.30
4  Cc1cc(-c2[nH]c3ccc(C(C)(C)C(=O)NCCC(C)(C)O)cc3c2C(C)C)ccn1                 <      4.30
5  CCc1c(-c2ccc(OC)c(OC)c2)[nH]c2ccc(C(=O)NC(CO)CO)cc12                 <      4.30
6  Cc1cc(-c2[nH]c3ccc(C(C)C(=O)NC4CN5CCC4CC5)cc3c2C(C)C)ccn1 (centres unmarked) [Example 191]                 =      5.89
7  CCc1c(-c2ccc(OC)c(OC)c2)[nH]c2ccc(C(=O)NC3CCCCCC3)cc12                 <      4.30

* * *

Target: human TLR7 (Homo sapiens (Human), UniProt Q9NYK1)
Test: TLR7 inhibition reporter assay (HEK-Blue SEAP reporter, gardiquimod stimulation)
Format: cell-based
Conditions: HEK-Blue cells overexpressing human TLR7, gardiquimod 7.5 μM
VALUE KIND: IC50 (nM)

>>> df
                                   compound                              study_system  value_kind  observed
0  Cc1cc(-c2[nH]c3ccc(C(C)C(=O)NC4CCC5CNCC54)cc3c2C(C)C)ccn1 (stereo not drawn) [Example 186]  human TLR7 (Homo sapiens (Human), UniProt Q9NYK1)        IC50       146
1  Cc1cc(-c2[nH]c3ccc(C(C)C(=O)N[C@@H]4CCCC[C@H]4N)cc3c2C(C)C)ccn1 (stereo partly drawn) [Example 215]  human TLR7 (Homo sapiens (Human), UniProt Q9NYK1)        IC50       148
2  Cc1cc(-c2[nH]c3ccc(C(=O)N4CCCN(C)CC4)cc3c2C(C)C)cc(C)n1 [Example 92]  human TLR7 (Homo sapiens (Human), UniProt Q9NYK1)        IC50        32
